melting point reference

{"MOLECULE": "Cc1ccc(O)c(C(C)(C)CC(C)(C)C)c1", "melting point": "42 to 45 °C"}
{"MOLECULE": "CC(C)(O)Cn1c(CO)nc2c(N)nc3cc(CCC(=O)N4CCOCC4)ccc3c21", "melting point": "223 to 225 °C"}
{"MOLECULE": "NC(=O)Cc1ccc2c(c1)C(=O)Cc1cccnc1S2", "melting point": "215 to 216 °C"}
{"MOLECULE": "C=C1CCC2C3CCc4cc(O)c(C=O)cc4C3CCC12C (stereo unspecified)", "melting point": "128 to 130 °C"}
{"MOLECULE": "COC(=O)COc1cc(C(=O)OC)nc2ccccc12", "melting point": "121 to 123 °C"}
{"MOLECULE": "CCCc1c(OCc2cccn3c(=O)c(CCC(=O)O)cnc23)ccc(C(C)=O)c1O", "melting point": "210 to 214 °C"}
{"MOLECULE": "O=C(CCC(=O)Sc1ccc(O)cc1)Sc1ccc(O)cc1", "melting point": "226 to 229 °C"}
{"MOLECULE": "COCOc1ccc(C(C)=O)c(O)c1", "melting point": "38 to 39 °C"}
{"MOLECULE": "CCC1CCCCN1CCC(=O)Nc1ccc2c(=O)c3ccc(NC(=O)CCN4CCCCC4CC)cc3[nH]c2c1 (stereo unspecified)", "melting point": "> 320 °C"}
{"MOLECULE": "CNc1nc2ccccc2c2[nH]c3ccccc3c12", "melting point": "146 to 147 °C"}
{"MOLECULE": "Cc1nn(CC(F)(F)COC(=O)CN)c(-c2ccc(F)cc2)c1-c1ccc2c(c1)NC(=O)CO2", "melting point": "142 to 146 °C"}
{"MOLECULE": "O=C(NCC1CN(c2ccc(N3CCOCC3=O)cc2)C(=O)O1)c1ccc(Cl)s1 (stereo unspecified)", "melting point": "227 °C"}
{"MOLECULE": "COC(=O)Cc1ccc(CNC(=O)C2Cc3ccccc3N2S(=O)(=O)c2ccc(-c3cccc(C(F)(F)F)c3)cc2)c(F)c1 (stereo unspecified)", "melting point": "50 to 57 °C"}
{"MOLECULE": "O=C1CCCCC(c2ccccc2)N1 (stereo unspecified)", "melting point": "135 to 137 °C"}
{"MOLECULE": "N#Cc1ccc(C(=O)N2CCc3c([nH]c4ccccc34)C2)cc1", "melting point": "228 to 232 °C"}
{"MOLECULE": "Cc1ccc(S(=O)(=O)OCCC2CCN(C(=O)c3ccccc3)CC2)cc1", "melting point": "81 to 83 °C"}
{"MOLECULE": "CC(=O)SCSc1cnnn1C", "melting point": "37 to 38 °C"}
{"MOLECULE": "S=c1n(CCc2ccc(-c3nnn[nH]3)cc2)ccn1C1CCc2ccccc2C1 (stereo unspecified)", "melting point": "218 to 220 °C"}
{"MOLECULE": "Cc1oc(-c2ccccc2)nc1COc1ccccc1COc1ccc(CC(=O)O)cc1", "melting point": "173 to 174 °C"}
{"MOLECULE": "O=C(Nc1ccccc1)Nc1cccnc1Cl", "melting point": "178 to 180 °C"}
{"MOLECULE": "CCCCn1c(=O)n(O)c(=O)c2cc(F)c(N3CCCC3)nc21", "melting point": "153 to 155 °C"}

Origin of measurements: a melting point compilation (Tetko et al.; mined from patent text by program, amines drawn as free bases though some values may be those of a salt)
